studyTarget: Histone deacetylase 4 (Homo sapiens, UniProt P56524)
Sequence (P56524 whole entry): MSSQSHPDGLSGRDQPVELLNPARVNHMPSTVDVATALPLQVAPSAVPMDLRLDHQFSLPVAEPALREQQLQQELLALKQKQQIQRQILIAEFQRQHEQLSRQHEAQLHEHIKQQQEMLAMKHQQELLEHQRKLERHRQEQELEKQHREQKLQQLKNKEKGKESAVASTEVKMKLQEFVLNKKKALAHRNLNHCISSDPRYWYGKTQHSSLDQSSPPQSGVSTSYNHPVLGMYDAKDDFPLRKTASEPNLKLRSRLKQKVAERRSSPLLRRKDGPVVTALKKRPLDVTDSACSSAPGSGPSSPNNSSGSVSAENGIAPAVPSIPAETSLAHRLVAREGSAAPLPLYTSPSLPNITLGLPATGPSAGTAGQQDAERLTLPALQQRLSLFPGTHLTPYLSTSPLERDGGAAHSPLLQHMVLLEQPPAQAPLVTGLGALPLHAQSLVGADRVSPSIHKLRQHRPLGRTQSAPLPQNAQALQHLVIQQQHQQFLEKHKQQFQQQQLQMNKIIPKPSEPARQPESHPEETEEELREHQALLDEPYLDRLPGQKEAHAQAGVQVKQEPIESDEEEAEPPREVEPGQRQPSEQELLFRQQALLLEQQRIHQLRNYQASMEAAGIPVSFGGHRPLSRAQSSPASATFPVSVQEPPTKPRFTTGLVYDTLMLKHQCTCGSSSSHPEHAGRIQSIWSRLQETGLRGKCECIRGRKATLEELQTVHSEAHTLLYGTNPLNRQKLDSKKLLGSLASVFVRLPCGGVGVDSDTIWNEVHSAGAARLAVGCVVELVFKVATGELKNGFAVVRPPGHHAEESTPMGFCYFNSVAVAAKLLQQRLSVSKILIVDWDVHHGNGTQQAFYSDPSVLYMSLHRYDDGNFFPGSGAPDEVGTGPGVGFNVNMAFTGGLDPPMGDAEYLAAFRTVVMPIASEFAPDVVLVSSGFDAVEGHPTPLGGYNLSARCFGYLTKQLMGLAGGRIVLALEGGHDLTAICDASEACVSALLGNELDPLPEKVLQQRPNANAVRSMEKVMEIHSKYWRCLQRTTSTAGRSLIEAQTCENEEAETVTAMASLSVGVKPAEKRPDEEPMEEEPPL
procedureText: Inhibition of GST tagged human recombinant HDAC4 (H86 to 31G) expressed in Baculovirus infected Sf9 insect cells using Ac-Leu-Gly-Lys(Tfa)-AMC as substrate preincubated for 5 mins followed by substrate addition measured after 30 mins by fluorescence assay
pIC50: −log10 of the molar value.
attributeMeasured: pIC50

Task: Recorded pIC50 of Nc1ccccc1NC(=O)c1ccc(Cn2cc(-c3ccc(C(=O)NCc4cccnc4)cc3)nn2)cc1 , please.
Output: < 4.00

----------
studyTarget: Histone deacetylase 1 (Homo sapiens, UniProt Q13547)
Sequence (Q13547 whole entry, the tested form may be a part): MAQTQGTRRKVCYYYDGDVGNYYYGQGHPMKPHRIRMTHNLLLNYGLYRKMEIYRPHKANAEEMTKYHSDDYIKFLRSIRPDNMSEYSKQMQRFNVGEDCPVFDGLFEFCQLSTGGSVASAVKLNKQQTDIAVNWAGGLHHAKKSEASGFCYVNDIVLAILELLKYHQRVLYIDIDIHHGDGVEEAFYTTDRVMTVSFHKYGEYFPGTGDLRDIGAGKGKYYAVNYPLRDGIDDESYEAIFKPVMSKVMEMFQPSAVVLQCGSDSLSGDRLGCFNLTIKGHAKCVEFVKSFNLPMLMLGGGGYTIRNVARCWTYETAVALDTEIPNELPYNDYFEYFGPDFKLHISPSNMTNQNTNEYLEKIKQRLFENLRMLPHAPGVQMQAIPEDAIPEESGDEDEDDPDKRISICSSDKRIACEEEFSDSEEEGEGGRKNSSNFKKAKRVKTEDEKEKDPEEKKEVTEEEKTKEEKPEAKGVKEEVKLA
procedureText: Inhibition of human recombinant HDAC1 (1 to 482 residues) expressed in Baculovirus using Ac-Leu-Gly-Lys(Ac)-AMC as substrate preincubated for 5 mins followed by substrate addition measured after 30 mins by fluorescence assay
attributeMeasured: IC50 (nM)

Answered cases to consult:
CC(C)(C)OC(=O)Nc1ccc(CNC(=O)Nc2ccc(C(=O)Nc3ccccc3N)cc2)cn1
3300
Nc1ccccc1NC(=O)c1ccc(NC(=S)NCc2ccc(Cl)nc2)cc1
250

1: Nc1ccccc1NC(=O)c1ccc(NC(=O)NCc2ccc(Cl)nc2)cc1
2: Nc1ccccc1NC(=O)c1ccc(Cn2cc(-c3ccc(NC(=O)NCc4cccnc4)cc3)nn2)cc1
Task: Kindly identify which of 1 and 2 has the larger recorded IC50 value. Provide the label of your selected option as the answer.
Output: 2
(2: 41 nM, 1: 21 nM)

----------
Test system: HCT-116
procedureText: cells
Assay type: functional, cell-based
experimentalParameters: Homo sapiens, HCT-116, 72 h
pIC50: −log10 of the molar value.
attributeMeasured: pIC50

1: O=C(/C=C/c1cccnc1)NCCCCC1CCN(C(=O)c2ccccc2)CC1 [DAPORINAD]
2: Nc1ccccc1NC(=O)c1ccc(NC(=S)NCc2cccnc2)cc1
3: Nc1ccc(CNC(=O)Nc2ccc(C(=O)Nc3ccccc3N)cc2)cn1
Task: Arrange the 3 entries by pIC50 so the values rise. Give the labels in the order specified.
Output: 3, 1, 2
(3: 5.14, 1: 5.80, 2: 6.00)

----------
System: HCT-116
procedureText: cells
Assay type: functional, cell-based
experimentalParameters: Homo sapiens, HCT-116, 72 h
attributeMeasured: IC50 (µM)

Nc1ccccc1NC(=O)c1ccc(NC(=S)NCc2ccc(Cl)nc2)cc1
6.1
Nc1ccccc1NC(=O)c1ccc(NC(=O)NCc2cccnc2)cc1
9.4
Nc1ccccc1NC(=O)c1ccc(CNC(=O)c2ccc3cncn3c2)cc1
7.4
Nc1ccccc1NC(=O)c1ccc(NC(=O)NCc2ccc(F)nc2)cc1
14

1: Nc1ccccc1NC(=O)c1ccc(NC(=O)/C(Cl)=C(\Cl)c2cccnc2)cc1
2: Nc1ccccc1NC(=O)c1ccc(NC(=S)NCc2nc3ccccc3[nH]2)cc1
3: Nc1ccccc1NC(=O)c1ccc(CCn2cc(-c3cccnc3)nn2)cc1
4: Nc1ccccc1NC(=O)c1ccc(NC(=S)NCc2ccc(F)nc2)cc1
5: Nc1ccccc1NC(=O)c1ccc(NC(=O)/C=C/c2cccnc2)cc1
Task: Please produce an ascending ranking of these compounds based on IC50. Give the labels in the order specified.
Output: 1, 3, 4, 2, 5

I: Nc1ccccc1NC(=O)c1ccc(CNC(=O)c2cc3cnccc3s2)cc1
II: Nc1ccc(CNC(=S)Nc2ccc(C(=O)Nc3ccccc3N)cc2)cn1
III: Nc1ccccc1NC(=O)c1ccc(NC(=S)NCc2cccc(Cl)c2)cc1
IV: Nc1ccccc1NC(=O)c1ccc(NC(=S)NCc2cncc(F)c2)cc1
Task: Please produce an ascending ranking of these compounds based on IC50. Give the labels in the order specified.
Output: I, III, IV, II

1: Nc1ccccc1NC(=O)c1ccc(CNC(=O)c2cc3cnccc3[nH]2)cc1
2: Nc1ccccc1NC(=O)c1ccc(Cn2cc(-c3ccc(C(=O)NCc4cccnc4)cc3)nn2)cc1
3: Nc1ccccc1NC(=O)c1ccc(NC(=S)NCc2ccccc2F)cc1
Task: Please produce an ascending ranking of these compounds based on IC50. Give the labels in the order specified.
Output: 2, 1, 3
(2: 2.4 µM, 1: 4 µM, 3: 6.3 µM)

P: Nc1cccc(CNC(=S)Nc2ccc(C(=O)Nc3ccccc3N)cc2)c1
Q: Nc1ccccc1NC(=O)c1ccc(CNC(=O)c2ccn3ccnc3c2)cc1
R: Nc1ccccc1NC(=O)c1ccc(NC(=O)NCc2ccc(Cl)nc2)cc1
Task: Please produce an ascending ranking of these compounds based on IC50. Give the labels in the order specified.
Output: Q, P, R
(Q: 1.8 µM, P: 2.8 µM, R: 5.2 µM)

----------
procedureText: Plasma clearance in Sprague-Dawley rat at 2 mg/kg, ip
Type: ADME, organism-based
attributeMeasured: CL/F (mL/min/kg)
Field format: number, assumed mL/min/kg, no unit text.

Task: Recorded CL/F of Nc1ccccc1NC(=O)c1ccc(Cn2cc(-c3ccc(C(=O)NCc4cccnc4)cc3)nn2)cc1 , please.
Output: 103

----------
Test system: HepG2
procedureText: cells
Assay type: functional, cell-based
experimentalParameters: Homo sapiens, HepG2, 72 h
attributeMeasured: IC50 (µM)

Answered cases to consult:
Nc1ccccc1NC(=O)c1ccc(CNC(=O)c2ccn3ccnc3c2)cc1
5.5
Nc1ccccc1NC(=O)c1ccc(NC(=S)NCc2cccnc2)cc1
4.2
Nc1ccccc1NC(=O)c1ccc(CNC(=O)c2cc3cnccc3[nH]2)cc1
1.7
Nc1ccccc1NC(=O)c1ccc(NC(=S)NCc2ccccc2F)cc1
5.4
Nc1ccc(CNC(=S)Nc2ccc(C(=O)Nc3ccccc3N)cc2)cn1
14
Nc1ccccc1NC(=O)c1ccc(NC(=S)NCc2cncc(Br)c2)cc1
7.5

a: Nc1ccccc1NC(=O)c1ccc(NC(=S)NCc2cncc(F)c2)cc1
b: Nc1ccccc1NC(=O)c1ccc(CNC(=O)c2cc3cnccc3s2)cc1
Task: Consider entries a and b . Which has the numerically lower IC50? Provide the label of your selected option as the answer.
Output: b

I: O=S(=O)(c1ccc(NC(=S)NCc2cccnc2)cc1)N1CCCCC1
II: Nc1ccccc1NC(=O)c1ccc(NC(=S)NCc2ccc(Cl)nc2)cc1
III: Nc1ccccc1NC(=O)c1ccc(NC(=S)NCc2nc3ccccc3[nH]2)cc1
IV: Nc1ccccc1NC(=O)c1ccc(NC(=S)NCc2cccc(Cl)c2)cc1
Task: Descending sort on IC50 required. Give the labels in the order specified.
Output: III, II, I, IV

a: Nc1ccccc1NC(=O)c1ccc(NC(=S)NCc2ccc(F)cc2)cc1
b: Nc1ccccc1NC(=O)c1ccc(NC(=O)NCc2cccnc2)cc1
Task: Consider entries a and b . Which has the numerically lower IC50? Provide the label of your selected option as the answer.
Output: b

----------
procedureText: Cmax in BALB/C nude mouse at 25 mg/kg, po
Assay type: ADME, organism-based
Design: dose 25 mg/kg, route oral
experimentalParameters: in vivo
attributeMeasured: Cmax (nM)
Field format: number, assumed nM, no unit text.

Task: Recorded Cmax of Nc1ccccc1NC(=O)c1ccc(NC(=S)NCc2cccnc2)cc1 , please.
Output: 2300

----------
System: HepG2
procedureText: cells
Format: functional, cell-based
experimentalParameters: Homo sapiens, HepG2, 72 h
attributeMeasured: IC50 (µM)

Nc1ccccc1NC(=O)c1ccc(NC(=O)NCc2ccc(F)nc2)cc1
13
Nc1ccccc1NC(=O)c1ccc(NC(=S)NCc2ccc3c(c2)OCO3)cc1
5.1

I: Nc1ccccc1NC(=O)c1ccc(NC(=S)NCc2cccc(F)c2)cc1
II: Nc1ccccc1NC(=O)c1ccc(CNC(=O)c2ccc3cn[nH]c3c2)cc1
III: O=C(/C=C/c1cccnc1)NCCCCC1CCN(C(=O)c2ccccc2)CC1
IV: Nc1ccccc1NC(=O)c1ccc(CNC(=O)c2cc3cccnc3[nH]2)cc1
Task: Descending sort on IC50 required. Give the labels in the order specified.
Output: II, IV, I, III
(II: 23 µM, IV: 6.1 µM, I: 2.9 µM, III: 0.89 µM)

P: Nc1ccccc1NC(=O)c1ccc(CNC(=O)c2ccc3cncn3c2)cc1
Q: Nc1ccccc1NC(=O)c1ccc(NC(=S)NCc2ccc(F)nc2)cc1
R: CC(=O)Nc1ccc(C(=O)Nc2ccccc2N)cc1
Task: Descending sort on IC50 required. Give the labels in the order specified.
Output: R, Q, P

----------
studyTarget: Histone deacetylase 1 (Homo sapiens, UniProt Q13547)
procedureText: Inhibition of human recombinant HDAC1 (1 to 482 residues) expressed in Baculovirus using Ac-Leu-Gly-Lys(Ac)-AMC as substrate preincubated for 5 mins followed by substrate addition measured after 30 mins by fluorescence assay
attributeMeasured: IC50 (nM)

Nc1ccccc1NC(=O)c1ccc(NC(=S)NCc2ccc3c(c2)OCO3)cc1
100
Nc1ccccc1NC(=O)c1ccc(CNC(=O)c2cc3ccncc3[nH]2)cc1
71
Nc1ccccc1NC(=O)c1ccc(NC(=S)NCc2cccc(Cl)c2)cc1
180

P: Nc1ccccc1NC(=O)c1ccc(NC(=O)/C(Cl)=C(\Cl)c2cccnc2)cc1
Q: Nc1ccccc1NC(=O)c1ccc(NC(=S)NCc2cncc(Br)c2)cc1
Task: Consider entries P and Q . Which has the numerically lower IC50? Provide the label of your selected option as the answer.
Output: Q
(Q: 350 nM, P: 670 nM)
